system: NCI-H226 lung; assay: NCI-60 one-dose screen, 48 h (100 = growth as untreated, 0 = no growth, -100 = all killed); conditions: 10 µM unless noted
The panel holds about 83,000 compounds, 20% with a hit somewhere; the sample as a whole holds those more often.
Task for the reader: assign each of the following compounds its reported growth.
One number for each entry, in %.

Worked cases, growth given:
// recorded growth for COc1cc(-c2nc3cc(Cl)c(Cl)cc3[nH]2)ccc1OCC(=O)N=Nc1c(O)[nH]c2ccc(Cl)cc12 : 30.4

// recorded growth for O=C(CCCCCCN1CC(=O)N2[C@H](c3ccc(Cl)cc3)c3[nH]c4ccccc4c3C[C@@H]2C1=O)NO : 84.1

// recorded growth for Cn1c(=O)c2[nH]c(SCC(=O)Nc3ccc(C(=O)/C=C/c4ccccc4Cl)cc3)nc2n(C)c1=O : 93.1

// recorded growth for CC(=O)O[C@H]1C[C@@H]2C(C)(C)C(=O)CC[C@@]2(C)c2ccc(C(C)C)cc21 : 101

// recorded growth for Clc1ccc(-c2cc(-c3ccccc3)nc(NCCNc3ccnc4cc(Cl)ccc34)n2)cc1 : 78.5

// recorded growth for Cc1c(CN)cc(-c2ccc(Cl)cc2)n1-c1ccccc1 : 38.4

// recorded growth for CCCCNC(=O)Oc1ccc(/C(=C(/C)Cc2ccc(OC)cc2)c2ccc(OCCN3CCCCC3)cc2)cc1 : 90.5

// recorded growth for COc1cc(/C=C/C(=O)c2ccc(-n3cc(CN4CCN(c5cc6c(cc5F)c(=O)c(C(=O)O)cn6C5CC5)CC4)nn3)cc2)ccc1O : 82.1

New cases:
// recorded growth for CCN1C(=O)N(CC)C2C1NN=c1s/c(=C\c3ccc(C(F)(F)F)cc3)c(=O)n12 (centres undefined) : 60.8

---

tested on: MOLT-4 leukemia; assay: NCI-60 one-dose screen, 48 h (100 = growth as untreated, 0 = no growth, -100 = all killed); details: 10 µM unless noted
About 83,000 compounds went through this panel and 20% of them were active in at least one assay; those are over-represented in the sample as a whole.
Parameter measured: growth (%)
One number for each entry, in %.

Worked cases, growth given:
Field growth (system: MOLT-4 leukemia) for entry Cc1ccc(-c2nc(/C=C3/C(=O)Nc4ccc(F)cc43)c3ccccn23)cc1 = 77.7

Field growth (system: MOLT-4 leukemia) for entry CC1(C)CC[C@]2(CO)CC[C@]3(C)[C@H](CC[C@@H]4[C@@]5(C)CCCNC(C)(C)[C@@H]5CC[C@]43C)[C@H]2[C@H]1O = 54.1

Field growth (system: MOLT-4 leukemia) for entry CC(=O)c1ccc(Nc2nccc(-c3ccc4ccccc4c3)n2)cc1 = 74.4

Field growth (system: MOLT-4 leukemia) for entry Cc1cccc(-c2nc(Nc3ccc4ncsc4c3)c3ccccc3n2)n1 = 64.2

Field growth (system: MOLT-4 leukemia) for entry COc1cc(-c2nc3c(ncc4ccc(=O)n(-c5ccccc5)c43)s2)cc(OC)c1OC = 69.5

Field growth (system: MOLT-4 leukemia) for entry CN1CCN(c2ccc(NC(=O)c3cncnc3Nc3ccc(OCc4cccc(F)c4)c(Cl)c3)cc2)CC1 = 6.75

Report growth for every entry below.
1. CCOC(=O)C(=Cc1ccc(-c2ccccc2)cc1)C(=O)OCC
2. CNC(=O)c1cc(Oc2cccc3nc(NC(=O)Nc4cc(C(F)(F)F)ccc4Cl)ccc23)ccn1
3. O=C(Oc1ccc(CCl)cc1)c1ccccc1
4. COc1ccc(/C=C/C(c2cc(OC)c(OC)c(OC)c2)n2cncn2)cc1 (stereo not given)

-- reply
1. -3.57
2. 89.5
3. -49.7
4. 39.4
